tested-target: Norepinephrine transporter (Rattus norvegicus)
assay: Inhibition of [3H]desmethylimipramine binding at rat norepinephrine transporter; 10 uM
property-measured: inhibition (%)
Please reply with the bare figure in % and do not write the unit itself.

{"columns": ["compound", "inhibition / %"],
 "data": [
  ["CN1[C@@H]2CC[C@H]1C[C@@H](OC(c1ccccc1)c1ccc(O)cc1)C2 (some centres undefined)", 27.3],
  ["CN1C2CCC1CC(OC(c1ccc(F)cc1)c1ccc(F)cc1)C2 (centres undefined)", 30],
  ["Cc1ccc(C(O[C@H]2C[C@H]3CC[C@@H](C2)N3C)c2ccc(C)cc2)cc1", 35.1],
  ["CN1[C@@H]2CC[C@H]1C[C@@H](OC(c1ccccc1)c1ccc([N+](=O)[O-])cc1)C2 (some centres undefined)", 29],
  ["CN1[C@@H]2CC[C@H]1C[C@@H](OC(c1ccccc1)c1ccc(Cl)c(Cl)c1)C2 (some centres undefined)", 56.5]
]}

Need inhibition of CN1C2CCC1CC(OC(c1ccccc1)c1ccc(Cl)cc1)C2 (stereo in doubt; 10) , thanks.
27.9

Param item: CN1[C@@H]2CC[C@H]1C[C@@H](OC(c1ccccc1)c1ccc(C(C)(C)C)cc1)C2 (some centres undefined)
37.6

Param item: CN1[C@@H]2CC[C@H]1C[C@@H](OC(c1ccc(Br)cc1)c1ccc(Br)cc1)C2
41.1

Param item: COc1ccc(C(O[C@H]2C[C@H]3CC[C@@H](C2)N3C)c2ccc(OC)cc2)cc1
34

Param item: CN1[C@@H]2CC[C@H]1C[C@@H](OC(c1ccccc1)c1ccc(C(F)(F)F)cc1)C2 (some centres undefined)
34.6

Param item: CN1[C@@H]2CC[C@H]1C[C@@H](OC(c1ccccc1)c1ccc(C#N)cc1)C2 (some centres undefined)
16

Param item: CN1[C@@H]2CC[C@H]1C[C@@H](OC(c1ccccc1)c1ccc(F)cc1)C2 (some centres undefined)
37.9

---

# IC50 values compiled below
tested-target: Sodium-dependent dopamine transporter (Rattus norvegicus)
Sequence (P23977 whole entry): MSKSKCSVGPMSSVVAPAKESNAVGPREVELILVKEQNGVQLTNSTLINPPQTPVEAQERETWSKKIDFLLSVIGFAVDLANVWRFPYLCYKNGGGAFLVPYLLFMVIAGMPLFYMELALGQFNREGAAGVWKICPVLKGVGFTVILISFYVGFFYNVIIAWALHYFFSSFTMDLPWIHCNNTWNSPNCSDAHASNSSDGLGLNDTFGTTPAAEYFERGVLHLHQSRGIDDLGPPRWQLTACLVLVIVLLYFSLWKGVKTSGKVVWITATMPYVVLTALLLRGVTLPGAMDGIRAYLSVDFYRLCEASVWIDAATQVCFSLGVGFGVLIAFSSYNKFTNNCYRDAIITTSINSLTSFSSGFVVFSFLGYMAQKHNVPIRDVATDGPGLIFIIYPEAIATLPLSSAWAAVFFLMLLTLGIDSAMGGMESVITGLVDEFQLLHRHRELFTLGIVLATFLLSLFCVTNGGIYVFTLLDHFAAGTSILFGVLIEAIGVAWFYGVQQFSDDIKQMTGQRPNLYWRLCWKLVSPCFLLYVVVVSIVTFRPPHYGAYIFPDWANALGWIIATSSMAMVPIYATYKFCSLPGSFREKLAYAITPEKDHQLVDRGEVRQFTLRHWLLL
assay: Inhibition of [3H]dopamine uptake in rat caudate putamen.
Please reply with the bare figure in nM and do not write the unit itself.

Some molecules with known IC50 results, for comparison:
{"columns": ["molecule", "property-measured", "assay-result"],
 "data": [
  ["CN1[C@@H]2CC[C@H]1C[C@@H](OC(c1ccccc1)c1ccc(C#N)cc1)C2 (some centres not stated)", "IC50", 222],
  ["COc1ccc(C(O[C@H]2C[C@H]3CC[C@@H](C2)N3C)c2ccc(OC)cc2)cc1", "IC50", 2880],
  ["CN1[C@@H]2CC[C@H]1C[C@@H](OC(c1ccccc1)c1ccc(O)cc1)C2 (some centres not stated)", "IC50", 677],
  ["CN1C2CCC1CC(OC(c1ccccc1)c1ccc(Cl)cc1)C2 (stereo in doubt; 10)", "IC50", 3520],
  ["Cc1ccc(C(O[C@H]2C[C@H]3CC[C@@H](C2)N3C)c2ccc(C)cc2)cc1", "IC50", 2540]
]}

Need IC50 of CCc1ccc(C(O[C@H]2C[C@H]3CC[C@@H](C2)N3C)c2ccccc2)cc1 (some centres not stated) , thanks.
984

Param item: CN1[C@@H]2CC[C@H]1C[C@@H](OC(c1ccc(F)cc1)c1ccc(Cl)c(Cl)c1)C2 (some centres not stated)
24

---

# Ki values compiled below
tested-target: Muscarinic acetylcholine receptor M2 (Rattus norvegicus)
Sequence (P10980 whole entry): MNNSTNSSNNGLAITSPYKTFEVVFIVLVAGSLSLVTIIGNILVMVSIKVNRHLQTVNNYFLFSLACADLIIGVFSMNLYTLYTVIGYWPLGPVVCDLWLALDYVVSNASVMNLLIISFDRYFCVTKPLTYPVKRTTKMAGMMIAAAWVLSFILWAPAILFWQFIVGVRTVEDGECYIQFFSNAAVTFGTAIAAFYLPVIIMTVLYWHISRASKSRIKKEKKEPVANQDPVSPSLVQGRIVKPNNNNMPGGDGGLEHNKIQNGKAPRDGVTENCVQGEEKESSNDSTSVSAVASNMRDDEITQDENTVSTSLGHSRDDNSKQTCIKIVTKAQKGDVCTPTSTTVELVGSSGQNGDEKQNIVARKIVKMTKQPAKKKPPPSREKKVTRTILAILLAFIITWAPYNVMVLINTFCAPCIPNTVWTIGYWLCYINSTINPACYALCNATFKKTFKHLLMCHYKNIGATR
Please reply with the bare figure in nM and do not write the unit itself.

{"columns": ["compound", "unit-string", "Ki"],
 "data": [
  ["CN1C2CCC1CC(OC(c1ccccc1)c1ccc(Cl)cc1)C2 (stereo in doubt; 7a)", "nM", 36.6]
]}

Turning now to a further compound:
Need Ki of CN1C2CCC1CC(OC(c1ccccc1)c1ccc(Cl)cc1)C2 (stereo in doubt; 10) , thanks.
87.4

---

# inhibition values compiled below
tested-target: UniProt P31652
assay: Inhibition of [3H]citalopram binding at rat serotonin transporter; 10 uM
Please reply with the bare figure in % and do not write the unit itself.

Some compounds with known inhibition results, for comparison:
{"columns": ["compound", "tested-target", "assay-result"],
 "data": [
  ["CN1[C@@H]2CC[C@H]1C[C@@H](OC(c1ccccc1)c1ccc(Cl)c(Cl)c1)C2 (some centres undefined)", "UniProt P31652", 66.2],
  ["CN1[C@@H]2CC[C@H]1C[C@@H](OC(c1ccccc1)c1ccc(C(F)(F)F)cc1)C2 (some centres undefined)", "UniProt P31652", 49.1]
]}

Need inhibition of CN1[C@@H]2CC[C@H]1C[C@@H](OC(c1ccccc1)c1ccc(C#N)cc1)C2 (some centres undefined) , thanks.
40

Param item: CN1[C@@H]2CC[C@H]1C[C@@H](OC(c1ccccc1)c1ccc([N+](=O)[O-])cc1)C2 (some centres undefined)
54

Param item: CCc1ccc(C(O[C@H]2C[C@H]3CC[C@@H](C2)N3C)c2ccccc2)cc1 (some centres undefined)
42.7

Param item: CN1[C@@H]2CC[C@H]1C[C@@H](OC(c1ccc(F)cc1)c1ccc(Cl)c(Cl)c1)C2 (some centres undefined)
80.3

---

# inhibition values compiled below
tested-target: Norepinephrine transporter (Rattus norvegicus) (UniProt Q9WTR4)
Sequence (Q9WTR4 as listed by the source): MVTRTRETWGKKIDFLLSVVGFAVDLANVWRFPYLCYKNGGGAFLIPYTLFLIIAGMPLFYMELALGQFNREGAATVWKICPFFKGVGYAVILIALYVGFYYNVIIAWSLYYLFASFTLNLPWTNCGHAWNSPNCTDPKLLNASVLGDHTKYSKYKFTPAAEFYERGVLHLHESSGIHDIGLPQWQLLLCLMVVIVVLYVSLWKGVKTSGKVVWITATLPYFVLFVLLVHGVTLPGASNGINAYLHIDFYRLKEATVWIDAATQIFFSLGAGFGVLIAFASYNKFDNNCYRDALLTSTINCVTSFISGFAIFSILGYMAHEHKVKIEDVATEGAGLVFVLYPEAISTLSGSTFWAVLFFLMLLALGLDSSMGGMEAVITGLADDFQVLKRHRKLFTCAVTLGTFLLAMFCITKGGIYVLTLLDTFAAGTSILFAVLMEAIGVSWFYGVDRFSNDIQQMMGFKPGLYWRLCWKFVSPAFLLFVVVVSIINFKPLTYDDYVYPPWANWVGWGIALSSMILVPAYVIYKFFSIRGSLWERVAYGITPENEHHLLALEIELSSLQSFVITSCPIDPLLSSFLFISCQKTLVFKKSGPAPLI
assay: Inhibition of [3H]desmethylimipramine binding at rat norepinephrine transporter; 10 uM
Please reply with the bare figure in % and do not write the unit itself.

Some molecules with known inhibition results, for comparison:
{"columns": ["molecule", "assay-result"],
 "data": [
  ["COc1ccc(C(O[C@H]2C[C@H]3CC[C@@H](C2)N3C)c2ccccc2)cc1 (stereo not given in full)", 30.9],
  ["Cc1ccc(C(O[C@H]2C[C@H]3CC[C@@H](C2)N3C)c2ccccc2)cc1 (stereo not given in full)", 31.8],
  ["CN1C2CCC1CC(OC(c1ccccc1)c1ccc(Cl)cc1)C2 (stereo in doubt; 7a)", 32],
  ["CCc1ccc(C(O[C@H]2C[C@H]3CC[C@@H](C2)N3C)c2ccccc2)cc1 (stereo not given in full)", 32.7]
]}

Turning now to a further molecule:
Need inhibition of CN1[C@@H]2CC[C@H]1C[C@@H](OC(c1ccccc1)c1ccc(Br)cc1)C2 (stereo not given in full) , thanks.
37

---

tested-target: Sodium-dependent dopamine transporter (Rattus norvegicus)
assay: Inhibition of [3H]dopamine uptake in rat caudate putamen.
property-measured: IC50

{"columns": ["molecule", "tested-target", "property-measured", "assay-result"],
 "data": [
  ["CN1[C@@H]2CC[C@H]1C[C@@H](OC(c1ccccc1)c1ccc(Cl)c(Cl)c1)C2 (some centres undefined)", "Sodium-dependent dopamine transporter (Rattus norvegicus)", "IC50", "47 nM"],
  ["CN1[C@@H]2CC[C@H]1C[C@@H](OC(c1ccccc1)c1ccc(C(C)(C)C)cc1)C2 (some centres undefined)", "Sodium-dependent dopamine transporter (Rattus norvegicus)", "IC50", "4460 nM"],
  ["CN1[C@@H]2CC[C@H]1C[C@@H](OC(c1ccc(Br)cc1)c1ccc(Br)cc1)C2", "Sodium-dependent dopamine transporter (Rattus norvegicus)", "IC50", "34 nM"],
  ["CN1[C@@H]2CC[C@H]1C[C@@H](OC(c1ccccc1)c1ccc(C(F)(F)F)cc1)C2 (some centres undefined)", "Sodium-dependent dopamine transporter (Rattus norvegicus)", "IC50", "2150 nM"],
  ["CN1C2CCC1CC(OC(c1ccccc1)c1ccc(Cl)cc1)C2 (stereo in doubt; 7a)", "Sodium-dependent dopamine transporter (Rattus norvegicus)", "IC50", "115 nM"]
]}

Turning now to a further molecule:
Need IC50 of COc1ccc(C(O[C@H]2C[C@H]3CC[C@@H](C2)N3C)c2ccccc2)cc1 (some centres undefined) , thanks.
468 nM

---

tested-target: Sodium-dependent serotonin transporter (Rattus norvegicus) (UniProt P31652)
Sequence (P31652 whole entry): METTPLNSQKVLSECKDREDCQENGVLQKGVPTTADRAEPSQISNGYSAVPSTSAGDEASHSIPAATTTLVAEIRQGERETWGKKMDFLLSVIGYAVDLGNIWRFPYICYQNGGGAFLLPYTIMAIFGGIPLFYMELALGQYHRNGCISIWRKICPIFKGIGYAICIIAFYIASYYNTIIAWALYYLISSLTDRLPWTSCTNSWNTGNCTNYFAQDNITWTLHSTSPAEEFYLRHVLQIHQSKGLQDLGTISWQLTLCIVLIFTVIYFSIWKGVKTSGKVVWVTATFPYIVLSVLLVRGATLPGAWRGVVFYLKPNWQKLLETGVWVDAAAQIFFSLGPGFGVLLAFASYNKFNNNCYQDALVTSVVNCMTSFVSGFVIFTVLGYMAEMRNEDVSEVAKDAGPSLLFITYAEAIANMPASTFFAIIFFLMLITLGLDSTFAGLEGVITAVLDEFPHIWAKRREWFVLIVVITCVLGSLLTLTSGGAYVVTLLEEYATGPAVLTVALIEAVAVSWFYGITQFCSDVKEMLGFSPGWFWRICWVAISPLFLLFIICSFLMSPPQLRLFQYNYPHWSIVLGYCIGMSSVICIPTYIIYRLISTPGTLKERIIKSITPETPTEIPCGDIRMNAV
assay: Inhibition of [3H]citalopram binding at rat serotonin transporter; 10 uM
property-measured: inhibition (%)
Please reply with the bare figure in % and do not write the unit itself.

Some compounds with known inhibition results, for comparison:
{"columns": ["compound", "tested-target", "assay-result"],
 "data": [
  ["CN1[C@@H]2CC[C@H]1C[C@@H](OC(c1ccccc1)c1ccc(O)cc1)C2 (stereo partly drawn)", "Sodium-dependent serotonin transporter (Rattus norvegicus) (UniProt P31652)", 23.3],
  ["CN1[C@@H]2CC[C@H]1C[C@@H](OC(c1ccccc1)c1ccc(Br)cc1)C2 (stereo partly drawn)", "Sodium-dependent serotonin transporter (Rattus norvegicus) (UniProt P31652)", 39],
  ["Cc1ccc(C(O[C@H]2C[C@H]3CC[C@@H](C2)N3C)c2ccc(C)cc2)cc1", "Sodium-dependent serotonin transporter (Rattus norvegicus) (UniProt P31652)", 35.5],
  ["CN1C2CCC1CC(OC(c1ccccc1)c1ccc(Cl)cc1)C2 (stereo in doubt; 10)", "Sodium-dependent serotonin transporter (Rattus norvegicus) (UniProt P31652)", 37.2],
  ["CN1C2CCC1CC(OC(c1ccccc1)c1ccc(Cl)cc1)C2 (stereo in doubt; 7a)", "Sodium-dependent serotonin transporter (Rattus norvegicus) (UniProt P31652)", 34],
  ["CN1[C@@H]2CC[C@H]1C[C@@H](OC(c1ccccc1)c1ccc(C(C)(C)C)cc1)C2 (stereo partly drawn)", "Sodium-dependent serotonin transporter (Rattus norvegicus) (UniProt P31652)", 24.7],
  ["CN1[C@@H]2CC[C@H]1C[C@@H](OC(c1ccc(Cl)cc1)c1ccc(Cl)cc1)C2", "Sodium-dependent serotonin transporter (Rattus norvegicus) (UniProt P31652)", 54],
  ["COc1ccc(C(O[C@H]2C[C@H]3CC[C@@H](C2)N3C)c2ccccc2)cc1 (stereo partly drawn)", "Sodium-dependent serotonin transporter (Rattus norvegicus) (UniProt P31652)", 30.5],
  ["CN1[C@@H]2CC[C@H]1C[C@@H](OC(c1ccccc1)c1ccc(F)cc1)C2 (stereo partly drawn)", "Sodium-dependent serotonin transporter (Rattus norvegicus) (UniProt P31652)", 35.2],
  ["COc1ccc(C(O[C@H]2C[C@H]3CC[C@@H](C2)N3C)c2ccc(OC)cc2)cc1", "Sodium-dependent serotonin transporter (Rattus norvegicus) (UniProt P31652)", 31]
]}

Need inhibition of CN1[C@@H]2CC[C@H]1C[C@@H](OC(c1ccc(Br)cc1)c1ccc(Br)cc1)C2 , thanks.
41

Param item: CN1C2CCC1CC(OC(c1ccc(F)cc1)c1ccc(F)cc1)C2 (stereo not drawn)
62

Param item: Cc1ccc(C(O[C@H]2C[C@H]3CC[C@@H](C2)N3C)c2ccccc2)cc1 (stereo partly drawn)
35.4
